Ref: patent US9175024B2

# reported solubility; entries follow
testSummary: physchem
experimentalConditions: water
Answer format: numeric, mg/mL implied, no suffix.

Below, 5 molecules whose answers are already recorded.
[NH2][Pt]1([NH2])[O]C(=O)CC(CCCN2CCCCC2)C(=O)[O]1 (centres unmarked): 139
NCCCC1CC(=O)[O][Pt]([NH2])([NH2])[O]C1=O (centres unmarked): 155
CCN(CC)CCCCC1CC(=O)[O][Pt]([NH2])([NH2])[O]C1=O (centres unmarked): 143
CN(C)CCC1CC(=O)[O][Pt]([NH2])([NH2])[O]C1=O (centres unmarked): 176
CCCN(CCC)CCCC1CC(=O)[O][Pt]([NH2])([NH2])[O]C1=O (centres unmarked): 130

Field solubility (entry CN(C)CCCC1CC(=O)[O][Pt]([NH2])([NH2])[O]C1=O (centres unmarked) ) reads 150

Field solubility (entry CNCCC1CC(=O)[O][Pt]([NH2])([NH2])[O]C1=O (centres unmarked) ) reads 208

Field solubility (entry CCN(CC)CCC1CC(=O)[O][Pt]([NH2])([NH2])[O]C1=O (centres unmarked) ) reads 166
